Field: drug sensitivity score. Provide a value for each of the molecules that follow.
# Tested on: DLD1 NRF2-WT
# Test Description: drug sensitivity score (DSS) cytotoxicity (DSS score); higher = more toxic; extreme values may be limits of the assay
# Measurement Setup: 72 h; CellTox Green cytotoxicity
Numbers only.

Here's what some known entries look like.
Molecule: Cc1cnc(Nc2ccc(OCCN3CCCC3)cc2)nc1Nc1cccc(S(=O)(=O)NC(C)(C)C)c1 [Fedratinib]
drug sensitivity score: 3.8

Molecule: CO[C@@H](C(=O)N1Cc2[nH]nc(NC(=O)c3ccc(N4CCN(C)CC4)cc3)c2C1)c1ccccc1 [Danusertib]
drug sensitivity score: 2.4

Molecule: CCOc1ccccc1-n1c(C(C)N2CCN(C(=O)COc3ccc(Cl)cc3)CC2)nc2ccccc2c1=O (stereo not drawn) [Erastin]
drug sensitivity score: 0

Molecule: Cc1ccc(=O)n(-c2ccccc2)c1 [Pirfenidone]
drug sensitivity score: 0

Molecule: COc1cc(Nc2c(C#N)cnc3cc(OCCCN4CCN(C)CC4)c(OC)cc23)c(Cl)cc1Cl [Bosutinib]
drug sensitivity score: 3.8

Molecule: CCN1CCN(c2ccc(Nc3cc(N(C)C(=O)Nc4c(Cl)c(OC)cc(OC)c4Cl)ncn3)cc2)CC1 [NVP-BGJ398]
drug sensitivity score: 0

For each listed entry, give its drug sensitivity score.
1. Cc1c(-c2c(-c3ccc(F)o3)sc3ncnc(O[C@H](Cc4ccccc4OCc4ccnn4CC(F)(F)F)C(=O)O)c23)ccc(OCCN2CCN(C)CC2)c1Cl
2. CN(C)C(=O)c1cc2cnc(Nc3ccc(N4CCNCC4)cn3)nc2n1C1CCCC1 [Ribociclib]
3. CNC(=O)c1cc(Oc2ccc(NC(=O)Nc3ccc(Cl)c(C(F)(F)F)c3)c(F)c2)ccn1 [Regorafenib]
4. O=C(O)c1ccc(-c2c[nH]c3ncc(-c4ccccc4)cc23)cc1C1CCCC1
5. CC[C@]1(O)C[C@H]2CN(CCc3c([nH]c4ccccc34)[C@@](C(=O)OC)(c3cc4c(cc3OC)N(C=O)[C@H]3[C@@](O)(C(=O)OC)[C@H](OC(C)=O)[C@]5(CC)C=CCN6CC[C@]43[C@@H]65)C2)C1 [Vincristine]

0
0
0
0.4
6.8

For each listed entry, give its drug sensitivity score.
1. CC/C(=C(\c1ccc(O)cc1)c1ccc(OCCN(C)C)cc1)c1ccccc1 [4-hydroxytamoxifen]
2. CC(C)Oc1ccc(C(=O)N[C@H](CNC(=O)CN(C)C)Cc2ccc(-c3cn4cccc([C@H](C)O)c4n3)cc2)cc1Cl
3. Cc1ccc(-n2nc(C(C)(C)C)cc2NC(=O)Nc2ccc(OCCN3CCOCC3)c3ccccc23)cc1 [Doramapimod]
4. CS(=O)(=O)CCNCc1ccc(-c2ccc3ncnc(Nc4ccc(OCc5cccc(F)c5)c(Cl)c4)c3c2)o1 [Lapatinib]
5. COc1ccc(-c2nc(N3CCOCC3)c3sc(CN(C)c4ncc(C(=O)NO)cn4)cc3n2)cn1 [CUDC-907]
6. Cc1ccc(NC(=O)c2ccc(CN3CCN(C)CC3)cc2)cc1Nc1nc(-c2cccnc2)cs1 [Masitinib]

1. 0
2. 0
3. 0
4. 0
5. 14.6
6. 0

For each listed entry, give its drug sensitivity score.
1. CCCCc1nc2cc(/C=C/C(=O)NO)ccc2n1CCN(CC)CC [Pracinostat]
2. CC(O)(CS(=O)(=O)c1ccc(F)cc1)C(=O)Nc1ccc(C#N)c(C(F)(F)F)c1 (stereo not drawn) [Bicalutamide]
3. Cc1nc(NC(=O)N2CCC[C@H]2C(N)=O)sc1-c1ccnc(C(C)(C)C(F)(F)F)c1 [Alpelisib]

[4, 0, 0]

For each listed entry, give its drug sensitivity score.
1. C#Cc1cccc(Nc2ncnc3cc4c(cc23)OCCOCCOCCO4)c1 [Icotinib]
2. NC1(c2ccc(-c3nc4ccn5c(=O)[nH]nc5c4cc3-c3ccccc3)cc2)CCC1 [MK-2206]
3. CCC1=C[C@@H]2CN(C1)Cc1c([nH]c3ccccc13)[C@@](C(=O)OC)(c1cc3c(cc1OC)N(C)[C@H]1[C@@](O)(C(=O)OC)[C@H](OC(C)=O)[C@]4(CC)C=CCN5CC[C@]31[C@@H]54)C2 [Vinorelbine]
4. CC(C)C[C@H](NC(=O)[C@@H](COC(C)(C)C)NC(=O)[C@H](Cc1ccc(O)cc1)NC(=O)[C@H](CO)NC(=O)[C@H](Cc1c[nH]c2ccccc12)NC(=O)[C@H](Cc1cnc[nH]1)NC(=O)[C@@H]1CCC(=O)N1)C(=O)N[C@@H](CCCNC(=N)N)C(=O)N1CCC[C@H]1C(=O)NNC(N)=O [Goserelin]
5. Cc1cc(Nc2cc(N3CCN(C)CC3)nc(Sc3ccc(NC(=O)C4CC4)cc3)n2)n[nH]1 [Tozasertib]
6. CC(C)(C)c1nc(-c2cccc(NS(=O)(=O)c3c(F)cccc3F)c2F)c(-c2ccnc(N)n2)s1 [Dabrafenib]
7. Cc1cn(-c2cc(NC(=O)c3ccc(C)c(Nc4nccc(-c5cccnc5)n4)c3)cc(C(F)(F)F)c2)cn1 [Nilotinib]

[0, 0, 8.1, 0, 5.7, 0, 0]

Could you tell me which drug sensitivity score is on file for CC(C)N(CCCNC(=O)Nc1ccc(C(C)(C)C)cc1)C[C@H]1O[C@@H](n2cc(Br)c3c(N)ncnc32)[C@H](O)[C@@H]1O [SGC0946] ?
0

Entry source: the supplement of paper PMC7600603
